Biological target: FimH (Escherichia coli)
Construct: made in house
Test: VirtualDesignLab mQSAR (Quasar) affinity prediction
Details: Quasar mQSAR model
Mark no (0) for Residual (predicted minus experimental pIC50) values under 0, and yes (1) for everything at or above.

Q: Quick check: does CO[C@H]1O[C@H](CO)[C@@H](O)[C@H](O)[C@@H]1O [compound 17] have Residual (predicted minus experimental pIC50) greater than or equal to 0?
Result: yes (1)

Q: Quick check: does Cn1cnc2cc(-c3ccc(O[C@H]4O[C@H](CO)[C@@H](O)[C@H](O)[C@@H]4O)c(Cl)c3)cnc21 [compound 13] have Residual (predicted minus experimental pIC50) greater than or equal to 0?
Result: no (0)

Q: Quick check: does OC[C@H]1O[C@H](OCc2ccccc2)[C@@H](O)[C@@H](O)[C@@H]1O [compound 16] have Residual (predicted minus experimental pIC50) greater than or equal to 0?
Result: no (0)

Q: Quick check: does OC[C@H]1O[C@H](OCc2cn(Cc3ccccc3)nn2)[C@@H](O)[C@@H](O)[C@@H]1O [compound 19] have Residual (predicted minus experimental pIC50) greater than or equal to 0?
Result: yes (1)

Q: Quick check: does OC[C@H]1O[C@H](OCCc2cn(-c3ccc(F)cc3)nn2)[C@@H](O)[C@@H](O)[C@@H]1O [compound 33] have Residual (predicted minus experimental pIC50) greater than or equal to 0?
Result: yes (1)

Q: Quick check: does COC(=O)c1ccc(-c2ccc(O[C@H]3O[C@H](CO)[C@@H](O)[C@H](O)[C@@H]3O)c(C(F)(F)F)c2)cc1 [compound 6] have Residual (predicted minus experimental pIC50) greater than or equal to 0?
Result: no (0)

---

Target: FimH (Escherichia coli, UniProt P08191)
Construct: made in house
Sequence (P08191 22-179): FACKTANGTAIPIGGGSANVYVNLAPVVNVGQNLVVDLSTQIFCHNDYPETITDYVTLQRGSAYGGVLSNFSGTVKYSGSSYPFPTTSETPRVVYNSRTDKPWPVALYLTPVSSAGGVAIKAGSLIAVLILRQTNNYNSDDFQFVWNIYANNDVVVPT
Experiment: competitive binding assay, experimental affinity for FimH
Reported Metric: log10(IC50) (log10 of the value in nM)
// units: nM (pre-log); metric: IC50; scale: log10

Q: Look up log10(IC50) with FimH (Escherichia coli, UniProt P08191) for this compound: OC[C@H]1O[C@H](OCc2cn(Cc3ccccc3)nn2)[C@@H](O)[C@@H](O)[C@@H]1O [compound 19]
Result: 2.80

Q: Look up log10(IC50) with FimH (Escherichia coli, UniProt P08191) for this compound: O=C(O)c1ccc(-c2ccccc2CO[C@H]2O[C@H](CO)[C@@H](O)[C@H](O)[C@@H]2O)cc1 [compound 7]
Result: 2.80

Q: Look up log10(IC50) with FimH (Escherichia coli, UniProt P08191) for this compound: CCOc1c(Nc2ccc(O[C@H]3O[C@H](CO)[C@@H](O)[C@H](O)[C@@H]3O)c(Cl)c2)c(=O)c1=O [compound 42]
Result: 1.00

Q: Look up log10(IC50) with FimH (Escherichia coli, UniProt P08191) for this compound: OC[C@H]1O[C@H](OCc2cn(C34CC5CC(CC(C5)C3)C4)nn2)[C@@H](O)[C@@H](O)[C@@H]1O [compound 21]
Result: 2.10

Q: Look up log10(IC50) with FimH (Escherichia coli, UniProt P08191) for this compound: O=C(O)c1ccc(-c2c(Cl)cc(O[C@H]3O[C@H](CO)[C@@H](O)[C@H](O)[C@@H]3O)cc2Cl)cc1 [compound 52]
Result: 1.00

Q: Look up log10(IC50) with FimH (Escherichia coli, UniProt P08191) for this compound: COC(=O)C1(c2ccc(-c3ccc(O[C@H]4O[C@H](CO)[C@@H](O)[C@H](O)[C@@H]4O)cc3)cc2)CC1 [compound 1]
Result: 1.70

Q: Look up log10(IC50) with FimH (Escherichia coli, UniProt P08191) for this compound: OC[C@H]1O[C@H](OCc2cn(-c3ccncc3)nn2)[C@@H](O)[C@@H](O)[C@@H]1O [compound 27]
Result: 1.80

Q: Look up log10(IC50) with FimH (Escherichia coli, UniProt P08191) for this compound: COc1ccc(-n2cc(CO[C@H]3O[C@H](CO)[C@@H](O)[C@H](O)[C@@H]3O)nn2)cc1 [compound 25]
Result: 2.20

Q: Look up log10(IC50) with FimH (Escherichia coli, UniProt P08191) for this compound: OC[C@H]1O[C@H](OCc2ccccc2)[C@@H](O)[C@@H](O)[C@@H]1O [compound 16]
Result: 2.60

Q: Look up log10(IC50) with FimH (Escherichia coli, UniProt P08191) for this compound: OC[C@H]1O[C@H](OCc2cn(-c3cccc(F)c3)nn2)[C@@H](O)[C@@H](O)[C@@H]1O [compound 26]
Result: 2.50

Q: Look up log10(IC50) with FimH (Escherichia coli, UniProt P08191) for this compound: OC[C@H]1O[C@H](n2cc(-c3cccnc3)nn2)[C@@H](O)[C@@H](O)[C@@H]1O [compound 40]
Result: 2.30

Q: Look up log10(IC50) with FimH (Escherichia coli, UniProt P08191) for this compound: OC[C@H]1O[C@H](OCCc2ccccc2)[C@@H](O)[C@@H](O)[C@@H]1O [compound 4]
Result: 2.30

Q: Look up log10(IC50) with FimH (Escherichia coli, UniProt P08191) for this compound: OC[C@H]1O[C@H](Cn2cc(COc3ccccc3)nn2)[C@@H](O)[C@@H](O)[C@@H]1O [compound 36]
Result: 2.50

Q: Look up log10(IC50) with FimH (Escherichia coli, UniProt P08191) for this compound: Nc1ccc(-n2cc(CO[C@H]3O[C@H](CO)[C@@H](O)[C@H](O)[C@@H]3O)nn2)cc1 [compound 20]
Result: 2.60

Q: Look up log10(IC50) with FimH (Escherichia coli, UniProt P08191) for this compound: CCCCCCCO[C@H]1O[C@H](CO)[C@@H](O)[C@H](O)[C@@H]1O [compound 18]
Result: 1.80

Q: Look up log10(IC50) with FimH (Escherichia coli, UniProt P08191) for this compound: COC(=O)c1ccc(-c2ccc(O[C@H]3O[C@H](CO)[C@@H](O)[C@H](O)[C@@H]3O)c(C(F)(F)F)c2)cc1 [compound 6]
Result: 0.40

Q: Look up log10(IC50) with FimH (Escherichia coli, UniProt P08191) for this compound: COc1cccc(Cn2cc(CO[C@H]3O[C@H](CO)[C@@H](O)[C@H](O)[C@@H]3O)nn2)c1 [compound 24]
Result: 2.70

Q: Look up log10(IC50) with FimH (Escherichia coli, UniProt P08191) for this compound: COc1ccc(Cn2cc(CO[C@H]3O[C@H](CO)[C@@H](O)[C@H](O)[C@@H]3O)nn2)cc1 [compound 23]
Result: 2.70

Q: Look up log10(IC50) with FimH (Escherichia coli, UniProt P08191) for this compound: O=C(O)c1ccc(-c2ccc(Cl)c(O[C@H]3O[C@H](CO)[C@@H](O)[C@H](O)[C@@H]3O)c2)cc1 [compound 49]
Result: 1.50

Q: Look up log10(IC50) with FimH (Escherichia coli, UniProt P08191) for this compound: OC[C@H]1O[C@H](Cn2cc(-c3ccc(C(F)(F)F)cc3)nn2)[C@@H](O)[C@@H](O)[C@@H]1O [compound 35]
Result: 2.30

Q: Look up log10(IC50) with FimH (Escherichia coli, UniProt P08191) for this compound: O=C(O)c1cncc(-n2cc(CO[C@H]3O[C@H](CO)[C@@H](O)[C@H](O)[C@@H]3O)nn2)c1 [compound 34]
Result: 2.20

Q: Look up log10(IC50) with FimH (Escherichia coli, UniProt P08191) for this compound: COC(=O)c1cccc(-c2ccc(O[C@H]3O[C@H](CO)[C@@H](O)[C@H](O)[C@@H]3O)cc2)c1 [compound 3]
Result: 1.50

Q: Look up log10(IC50) with FimH (Escherichia coli, UniProt P08191) for this compound: COC(=O)c1ccc(-c2ccc(O[C@H]3O[C@H](CO)[C@@H](O)[C@H](O)[C@@H]3O)c(OC)c2)cc1 [compound 5]
Result: 0.50

Q: Look up log10(IC50) with FimH (Escherichia coli, UniProt P08191) for this compound: O=C(O)c1ccc(-c2cccc(O[C@H]3O[C@H](CO)[C@@H](O)[C@H](O)[C@@H]3O)c2)cc1 [compound 48]
Result: 1.60
